# assay remarks: Test B: Cytotoxicity Assay
# Type: cell-based
# experimental conditions: human, uninfected MT-4 cells, same protocol as Test A
measured quantity: CC50 at 5 days (µM)

- CCC(O)(C#Cc1ccc(-c2cccc3c(NS(C)(=O)=O)nn(C)c23)c([C@H](Cc2cc(F)cc(F)c2)NC(=O)Cn2nc(C(F)(F)F)c3c2C(F)(F)[C@@H]2C[C@H]32)n1)CC: 6.96
- CN(C)CC(=O)Nc1nn(C)c2c(-c3ccc(C#CC(C)(C)O)nc3[C@H](Cc3cc(F)cc(F)c3)NC(=O)Cn3nc(C(F)F)c4c3C(F)(F)[C@@H]3C[C@H]43)ccc(Cl)c12 [Compound 99B]: 6.37
- Cn1nc(NC(=O)C2CC2)c2c(Cl)ccc(-c3ccc(C#CC(C)(C)O)nc3[C@H](Cc3cc(F)cc(F)c3)NC(=O)Cn3nc(C(F)F)c4c3C(F)(F)[C@@H]3C[C@H]43)c21: 6.47
- Cn1nc(NS(C)(=O)=O)c2c(Cl)ccc(-c3ccc(C#CC(C)(O)CF)nc3[C@H](Cc3cc(F)cc(F)c3)NC(=O)Cn3nc(C(F)F)c4c3C(F)(F)[C@@H]3C[C@H]43)c21 (some centres unmarked): 16.2
- Cn1nc(NS(C)(=O)=O)c2c(Cl)ccc(-c3ccc(C#CC(C)(O)CO)nc3[C@H](Cc3cc(F)cc(F)c3)NC(=O)Cn3nc(C(F)F)c4c3C(F)(F)[C@@H]3C[C@H]43)c21 (some centres unmarked): 24.4
- Cn1nc(NS(C)(=O)=O)c2c(Cl)ccc(-c3ccc(C#CC(C)(C)O)nc3[C@H](Cc3cc(F)cc(F)c3)NC(=O)Cn3nc(Cl)c4c3C(F)(F)[C@@H]3C[C@H]43)c21: 26.7
- Cn1nc(N)c2cccc(-c3ccc(C#CC(C)(C)O)nc3[C@H](Cc3cc(F)cc(F)c3)NC(=O)Cn3nc(C(F)F)c4c3C3CC3CC4)c21 (some centres unmarked): 8.76
- Cn1nc(NS(C)(=O)=O)c2c(Cl)ccc(-c3ccc(C#CC(C)(C)O)nc3[C@H](Cc3cc(F)cc(F)c3)NC(=O)Cn3nc(C(F)F)c4c3C3CC3CC4)c21 (some centres unmarked): 9.94
- CC(C)(O)C#Cc1ncc(-c2ccc3c(c2)C(=O)NC3)c([C@H](Cc2cc(F)cc(F)c2)NC(=O)Cn2nc(C(F)F)c3c2C(F)(F)CCC3(F)F)n1 [Compound 21H]: 7.63
- C[C@H](O)C#Cc1ccc(-c2ccc(Cl)c3c(NS(C)(=O)=O)nn(C)c23)c([C@H](Cc2cc(F)cc(F)c2)NC(=O)Cn2nc(C(F)F)c3c2C(F)(F)[C@@H]2C[C@H]32)n1: 12.6
- Cn1nc(O)c2cccc(-c3ccc(C#CC(C)(C)O)nc3[C@H](Cc3cc(F)cc(F)c3)NC(=O)Cn3nc(C(F)F)c4c3C(F)(F)[C@@H]3C[C@H]43)c21 [Compound 107B]: 5.3
- CCn1nc(N)c2cccc(-c3ccc(C#CC(C)(C)O)nc3[C@H](Cc3cc(F)cc(F)c3)NC(=O)Cn3nc(C(F)(F)F)c4c3C(F)(F)[C@@H]3C[C@H]43)c21 [Compound 45G]: 10.4
- C[C@@H](O)C#Cc1ccc(-c2ccc(Cl)c3c(NS(C)(=O)=O)nn(C)c23)c([C@H](Cc2cc(F)cc(F)c2)NC(=O)Cn2nc(C(F)F)c3c2C(F)(F)[C@@H]2C[C@H]32)n1: 11.3
- Cn1nc(NS(C)(=O)=O)c2cccc(-c3ccc(C#CC(C)(C)O)nc3[C@H](Cc3cc(F)cc(F)c3)NC(=O)Cn3nc(C(F)(F)F)c4c3C(F)(F)[C@@H]3C[C@H]43)c21 [Compound 33F]: 12.9
- CCOC(=O)c1nn(CC(=O)N[C@@H](Cc2cc(F)cc(F)c2)c2nc(C#CC(C)(C)O)ccc2-c2ccc(Cl)c3c(NS(C)(=O)=O)nn(C)c23)c2c1[C@H]1C[C@H]1C2(F)F [Compound 158G]: 26.7
- Cc1nc(NS(C)(=O)=O)c2cccc(-c3ccc(C#CC(C)(C)O)nc3[C@H](Cc3cc(F)cc(F)c3)NC(=O)Cn3nc(C(F)F)c4c3C(F)(F)[C@@H]3C[C@H]43)n12 [Compound 120H]: 11.7
- Cn1nc(NS(C)(=O)=O)c2c(F)ccc(-c3ccc(C#CC(C)(C)O)nc3[C@H](Cc3cc(F)cc(F)c3)NC(=O)Cn3nc(C(F)(F)F)c4c3C(F)(F)[C@@H]3C[C@H]43)c21 [Compound 132C]: 24.2
- Cn1nc(NS(C)(=O)=O)c2c(Cl)ccc(-c3ccc(C#CC(C)(C)O)nc3[C@H](Cc3cc(F)cc(F)c3)NC(=O)Cn3nc(I)c4c3C(F)(F)[C@@H]3C[C@H]43)c21: 20.5
- Cn1nc(NS(C)(=O)=O)c2cccc(-c3ccc(C#CC(C)(C)O)nc3[C@H](Cc3cc(F)cc(F)c3)NC(=O)Cn3nc(C(F)F)c4c3C(F)(F)[C@@H]3C[C@H]43)c21: 11.2
- CC(C)C(O)C#Cc1ccc(-c2cccc3c(NS(C)(=O)=O)nn(C)c23)c([C@H](Cc2cc(F)cc(F)c2)NC(=O)Cn2nc(C(F)(F)F)c3c2C(F)(F)[C@@H]2C[C@H]32)n1 (some centres unmarked): 7.7
